// data source = ChEMBL document CHEMBL3124806

Attribute: growth at 10 µM
Assay: Cytotoxicity against human UO31 cells assessed as cell growth at 10 uM after 48 hrs by SRB assay relative to untreated control
Assay type: functional
Settings: UO-31, 48 h, read-out: Activity
Supply the numeric figure in %, leaving out any unit text.

# annotated cases, reported growth at 10 µM shown
compound.string	unit.abbreviation	growth at 10 µM
Cc1ccc(C2=Nc3nc4ccccn4c3C(=O)[C@H](C)N2)cc1	%	45.9
C[C@@H]1NC(c2ccc(Br)cc2)=Nc2nc3ccccn3c2C1=O	%	62
Cc1ccccc1C1=Nc2nc3ccccn3c2C(=O)[C@H](Cc2ccccc2)N1	%	80.6
Cc1ccc(C2=Nc3nc4ccccn4c3C(=O)[C@H](Cc3ccccc3)N2)cc1	%	77

Now for the compound whose growth at 10 µM we want.
Param item = "O=C1Nc2nc3ccccn3c2C(=O)[C@H](Cc2ccccc2)N1" ; retrieve measured growth at 10 µM. 90.2

====

System: CCRF-CEM
Test: Cytotoxicity against human CCRF-CEM cells assessed as cell growth at 10 uM after 48 hrs by SRB assay relative to untreated control
Format: functional
Details: read-out: Activity
readout.label: growth at 10 µM

# annotated cases, reported growth at 10 µM shown
compound.string	growth at 10 µM
O=C1c2c(nc3ccccn23)NC(=O)N2CCC[C@@H]12	102%
O=C1c2c(nc3ccccn23)N=C(c2ccccc2)N2CCC[C@@H]12	104%
C[C@@H]1NC(c2ccccc2)=Nc2nc3ccccn3c2C1=O	104%
Cc1ccccc1C1=Nc2nc3ccccn3c2C(=O)[C@H](Cc2ccccc2)N1	105%
Cc1ccc(C2=Nc3nc4ccccn4c3C(=O)[C@H](C)N2)cc1	85.2%

Now for the compound whose growth at 10 µM we want.
Param item = "C[C@@H]1NC(c2ccc(Br)cc2)=Nc2nc3ccccn3c2C1=O" ; retrieve measured growth at 10 µM. 79.4%

====

Test system: UACC-62
Assay: Cytotoxicity against human UACC62 cells assessed as cell growth at 10 uM after 48 hrs by SRB assay relative to untreated control
Type: functional
Conditions: UACC-62, 48 h, read-out: Activity
readout.label: growth at 10 µM (%)
Supply the numeric figure in %, leaving out any unit text.

# annotated cases, reported growth at 10 µM shown
compound.string	growth at 10 µM, %
COc1ccc(C2=Nc3nc4ccccn4c3C(=O)[C@H](Cc3ccccc3)N2)cc1	99.5
Cc1ccc(C2=Nc3nc4ccccn4c3C(=O)[C@@H]3CCCN23)cc1	101
C[C@@H]1NC(c2ccccc2)=Nc2nc3ccccn3c2C1=O	104
Cc1ccc(C2=Nc3nc4ccccn4c3C(=O)[C@H](C)N2)cc1	80.1
O=C1Nc2nc3ccccn3c2C(=O)[C@H](Cc2ccccc2)N1	104

Now for the compound whose growth at 10 µM we want.
Param item = "C[C@H]1NC(c2ccc(Br)cc2)=Nc2nc3ccccn3c2C1=O" ; retrieve measured growth at 10 µM. 84

====

System: SR
Test: Cytotoxicity against human SR cells assessed as cell growth at 10 uM after 48 hrs by SRB assay relative to untreated control
Format: functional
Conditions: read-out: Activity
// classify: if (growth at 10 µM < 40%) Met else Not met

compound.string	group
C[C@@H]1NC(c2ccc(N(C)C)cc2)=Nc2nc3ccccn3c2C1=O	Not met
C[C@@H]1NC(c2ccc(Br)cc2)=Nc2nc3ccccn3c2C1=O	Met
COc1ccc(C2=Nc3nc4ccccn4c3C(=O)[C@H](Cc3ccccc3)N2)cc1	Not met
C[C@@H]1NC(c2ccccc2)=Nc2nc3ccccn3c2C1=O	Not met
Cc1ccc(C2=Nc3nc4ccccn4c3C(=O)[C@H](C)N2)cc1	Not met

Confirm or reject: growth at 10 µM of "Cc1ccc(C2=Nc3nc4ccccn4c3C(=O)[C@@H]3CCCN23)cc1" lies strictly below 40% Not met

====

Attribute: growth at 10 µM
Test: Cytotoxicity against human UO31 cells assessed as cell growth at 10 uM after 48 hrs by SRB assay relative to untreated control
Type: functional
Conditions: UO-31, 48 h, read-out: Activity
Supply the numeric figure in %, leaving out any unit text.

Param item = "C[C@H]1NC(c2ccc(Br)cc2)=Nc2nc3ccccn3c2C1=O" ; retrieve measured growth at 10 µM. 51.5

"COc1ccc(C2=Nc3nc4ccccn4c3C(=O)[C@H](Cc3ccccc3)N2)cc1" ? 83.5

"O=C1c2c(nc3ccccn23)NC(=O)N2CCC[C@@H]12" ? 95.1

====

System: LOX IMVI
Assay: Cytotoxicity against human LOXIMVI cells assessed as cell growth at 10 uM after 48 hrs by SRB assay relative to untreated control
Type: functional
Conditions: read-out: Activity
Attribute: growth at 10 µM
Supply the numeric figure in %, leaving out any unit text.

compound.string	assay.value
C[C@H]1NC(c2ccc(Br)cc2)=Nc2nc3ccccn3c2C1=O	92.3

Param item = "C[C@@H]1NC(c2ccc(Br)cc2)=Nc2nc3ccccn3c2C1=O" ; retrieve measured growth at 10 µM. 52.4

"Cc1ccc(C2=Nc3nc4ccccn4c3C(=O)[C@H](Cc3ccccc3)N2)cc1" ? 85.8
